# Test system: Klebsiella pneumoniae
# method_summary: Tested for inhibition of visible growth of Klebsiella pneumoniae
# Format: functional
readout_label: MIC (µg/mL)

INSERT INTO assay_data (compound, units_of_measure, observed) VALUES
  ('CC1(C)SC2C(NC(=O)[C@H](N)c3ccc4c(c3)CCO4)C(=O)N2C1C(=O)O (some centres not stated)', 'µg/mL', 6.2),
  ('CC1=C(C(=O)O)N2C(=O)C(NC(=O)C(N)c3ccc4c(c3)OCCO4)C2SC1 (mixture of isomers)', 'µg/mL', 200),
  ('Cn1nnnc1SCC1=C(C(=O)O)N2C(=O)C(NC(=O)[C@H](N)c3ccc4c(c3)OCO4)C2SC1 (some centres not stated)', 'µg/mL', 3.1);

(I) N[C@@H](C(=O)NC1C(=O)N2C(C(=O)O)=C(CSc3c[nH]nn3)CSC12)c1ccc2c(c1)OCO2 (some centres not stated)
(II) CC(=O)OCC1=C(C(=O)O)N2C(=O)C(NC(=O)C(O)c3ccc4c(c3)OCO4)C2SC1 (racemic)
(III) Cc1nnc(SCC2=C(C(=O)O)N3C(=O)C(NC(=O)[C@H](N)c4ccc5c(c4)OCO5)C3SC2)s1 (some centres not stated)
(IV) CC1(C)SC2C(NC(=O)C(C(=O)O)c3ccc4c(c3)OCO4)C(=O)N2C1C(=O)O (racemic)
(V) CC1(C)S[C@@H]2[C@H](NC(=O)[C@H](N)c3ccc(O)cc3)C(=O)N2[C@H]1C(=O)O [AMOXICILLIN]
Lookup: Highest MIC first, then in falling order down to the smallest. Lab note: record answer as labels in requested order.
Found: IV, II, III, I, V
